study-system: CYP1A2 (Homo sapiens, UniProt P05177)
Sequence (P05177 whole entry): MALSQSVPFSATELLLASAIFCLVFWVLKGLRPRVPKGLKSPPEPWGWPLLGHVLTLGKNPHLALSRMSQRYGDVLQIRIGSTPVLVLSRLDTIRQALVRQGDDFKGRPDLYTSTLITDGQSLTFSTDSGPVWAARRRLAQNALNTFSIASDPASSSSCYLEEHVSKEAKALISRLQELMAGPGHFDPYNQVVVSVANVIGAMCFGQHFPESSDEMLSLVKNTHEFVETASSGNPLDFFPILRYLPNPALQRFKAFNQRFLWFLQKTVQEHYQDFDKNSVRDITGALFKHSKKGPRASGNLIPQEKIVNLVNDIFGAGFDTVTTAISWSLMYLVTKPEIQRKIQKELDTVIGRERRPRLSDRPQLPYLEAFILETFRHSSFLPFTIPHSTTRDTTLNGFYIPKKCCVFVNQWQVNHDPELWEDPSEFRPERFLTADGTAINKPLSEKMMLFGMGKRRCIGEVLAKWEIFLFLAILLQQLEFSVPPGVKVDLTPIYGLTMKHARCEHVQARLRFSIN
observable: IC50 (µM)
Unit µM implied. Number only.

Reported IC50 for CC(=O)O[C@H]1CC(C)(C)C(=C=C/C(C)=C/C=C/C(C)=C/C=C/C=C(C)/C=C/C=C(\C)C(=O)C[C@@]23O[C@]2(C)C[C@@H](O)CC3(C)C)[C@](C)(O)C1 was 30.3
